Experimental target: hGYS1 enzyme (recombinant hGYS1/GN1 protein) (Homo sapiens (Human))
Sequence (P13807 whole entry): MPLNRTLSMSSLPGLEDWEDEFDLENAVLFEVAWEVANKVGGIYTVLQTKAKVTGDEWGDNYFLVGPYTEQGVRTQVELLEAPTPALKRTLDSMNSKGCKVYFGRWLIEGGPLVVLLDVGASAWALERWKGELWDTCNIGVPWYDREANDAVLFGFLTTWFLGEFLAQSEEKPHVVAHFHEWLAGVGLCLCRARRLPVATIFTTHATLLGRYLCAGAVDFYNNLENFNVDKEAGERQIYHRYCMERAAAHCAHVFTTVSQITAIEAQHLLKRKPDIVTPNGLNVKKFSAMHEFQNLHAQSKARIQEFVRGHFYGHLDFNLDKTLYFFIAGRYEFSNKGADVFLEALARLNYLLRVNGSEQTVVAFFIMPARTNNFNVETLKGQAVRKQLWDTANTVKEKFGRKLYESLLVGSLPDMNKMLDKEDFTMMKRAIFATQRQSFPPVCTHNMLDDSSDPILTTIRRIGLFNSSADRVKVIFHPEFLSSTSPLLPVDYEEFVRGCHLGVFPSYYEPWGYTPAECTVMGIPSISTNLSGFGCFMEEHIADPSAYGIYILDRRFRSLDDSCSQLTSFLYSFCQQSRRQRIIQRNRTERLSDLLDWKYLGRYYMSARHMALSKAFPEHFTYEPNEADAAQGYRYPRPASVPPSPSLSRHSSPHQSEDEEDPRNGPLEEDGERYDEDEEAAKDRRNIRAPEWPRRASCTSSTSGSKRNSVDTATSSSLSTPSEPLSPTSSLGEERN
Sequence (P46976 whole entry partner): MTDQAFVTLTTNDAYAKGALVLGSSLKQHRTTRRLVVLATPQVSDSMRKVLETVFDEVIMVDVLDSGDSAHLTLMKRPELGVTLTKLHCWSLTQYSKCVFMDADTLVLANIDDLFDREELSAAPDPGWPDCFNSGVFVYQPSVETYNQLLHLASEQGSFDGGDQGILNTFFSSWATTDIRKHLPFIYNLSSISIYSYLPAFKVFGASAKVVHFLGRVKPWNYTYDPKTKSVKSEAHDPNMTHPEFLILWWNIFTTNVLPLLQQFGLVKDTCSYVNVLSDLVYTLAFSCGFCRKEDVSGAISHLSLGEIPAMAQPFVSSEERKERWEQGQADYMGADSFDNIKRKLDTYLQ
Test method notes: GYS1 coupled enzyme assay (PK/LDH)
Conditions: hGYS1/GN1 50 nM, UDP-Glucose 0.8 mM, G6P 1 mM; geometric mean of at least 2 runs
Description: The GYS1 coupled enzyme assay is a kinetic biochemical assay that indirectly quantifies the rate of glycogen synthesis by coupling the conversion of GYS1 substrate UDP-glucose into UDP with downstream enzymatic reactions. UDP is released from UDP-glucose as glucose monomers are linked into the growing glycogen strand by GYS1. […] Oxidation of NADH to NAD+ can be measured continuously with a plate reader by quantifying the decrease in NADH absorbance at 340 nm over time. […]
# label = True if IC50 < 40 nM else False

Molecule | Qualitative label
CC(C)c1ccc([C@@H](NC(=O)[C@@H]2C[C@@H](F)CN2C(=O)C(C)n2cncn2)c2ccccc2)cc1 (stereo partly shown) | False
CC(C)c1ccc([C@@H](NC(=O)[C@@H]2C[C@@H](F)CN2C(=O)Cc2ccnn2C)c2ccccc2)cc1 (stereo in doubt) | True
O=C(N[C@@H](c1ccccc1)c1ccc(C2CC2)c(F)n1)[C@@H]1C[C@@H](F)CN1C(=O)Cc1cccn2c(=O)[nH]nc12 | True
CC(C)c1ccc([C@@H](NC(=O)[C@@H]2C[C@@H](F)CN2C(=O)C(C)n2cccn2)c2ccccc2)cc1 (stereo partly shown) | False
CC(=O)N1CCOC(C(=O)N2C[C@H](F)C[C@H]2C(=O)N[C@@H](c2ccccc2)c2ccc(C(C)C)cc2)C1 (stereo partly shown) | False
O=C(NC(c1ccc(C2CC2)c(F)c1)c1cccc2[nH]c(=O)[nH]c12)[C@@H]1CCCN1C(=O)Cc1cnn[nH]1 (single isomer, unassigned) | False
Cc1nc(CC(=O)N2C[C@H](F)C[C@H]2C(=O)N[C@@H](c2ccccc2)c2ccc(C(C)C)cc2)cs1 | True
Cc1nnnn1CC(=O)N1C[C@H](F)C[C@H]1C(=O)N[C@@H](c1ccccc1)c1ccc(C2CC2)c(F)c1 | False
Cc1coc(CC(=O)N2C[C@H](F)C[C@H]2C(=O)N[C@@H](c2ccccc2)c2ccc(C3CC(F)(F)C3)c(F)c2)n1 | True
CC(=O)N1CCCC1CCC(=O)N1C[C@H](F)C[C@H]1C(=O)N[C@@H](c1ccccc1)c1ccc(C(C)C)cc1 (stereo partly shown) | False
CC(=O)N1CCC2(CC(C(=O)N3C[C@H](F)C[C@H]3C(=O)N[C@@H](c3ccccc3)c3ccc(C(C)C)cc3)=NO2)C1 (stereo partly shown) | False
Cc1cn(CC(=O)N2C[C@H](F)C[C@H]2C(=O)N[C@@H](c2ccccc2)c2ccc(C(C)C)c(F)c2)c(=O)n(C)c1=O | True
Cn1c(=O)n(CC(=O)N2C[C@H](F)C[C@H]2C(=O)N[C@@H](c2ccccc2)c2ccc(C3(C)CC3)c(F)n2)c2ccccc21 | True
CC(C)c1ccc([C@@H](NC(=O)[C@@H]2C[C@@H](F)CN2C(=O)Cc2ccccn2)c2ccccc2)cc1 | False
O=C(N[C@@H](c1ccccc1)c1ccc(C2CC(F)(F)C2)c(F)n1)[C@@H]1C[C@@H](F)CN1C(=O)Cn1nnnc1C(F)F | True
CC1(c2ccc([C@@H](NC(=O)[C@@H]3C[C@@H](F)CN3C(=O)Cc3n[nH]c4ccccc34)c3ccccc3)cc2F)CC1 | False
CC(C)c1ccc([C@@H](NC(=O)[C@@H]2C[C@@H](F)CN2C(=O)Cc2cnc3ccccn23)c2ccccc2)cc1F | True
CC(C)c1ccc([C@@H](NC(=O)[C@@H]2C[C@@H](F)CN2C(=O)Cc2ccc3ncccc3c2)c2ccccc2)cc1 | True
CC(C)c1ccc([C@@H](NC(=O)[C@@H]2C[C@@H](F)CN2C(=O)Cn2cnnc2)c2ccccc2)cc1 | False
CC(C)(C)OC(=O)n1c(CC(=O)N2C[C@H](F)C[C@H]2C(=O)N[C@@H](c2ccccc2)c2ccc(C3(C)CC3)c(F)n2)cc2ccccc21 | True
O=C(NC(c1ccccc1)c1ccc(C2CC2)cn1)[C@@H]1C[C@@H](F)CN1C(=O)Cc1cnn[nH]1 (single isomer, unassigned) [Compound 497] | False
Cc1nn(CC(=O)N2C[C@H](F)C[C@H]2C(=O)N[C@@H](c2ccccc2)c2ccc(C(C)C)c(F)n2)c(=O)o1 | True
CC(=O)N[C@@H](CCC(=O)O)C(=O)N1C[C@H](F)C[C@H]1C(=O)N[C@@H](c1ccccc1)c1ccc(C(C)C)cc1 | False
